# Tested on: T-47D breast
# Test Name: NCI tumour cell line growth inhibition, 48 h; in the data active means GI50 below about 0.43 µM; inactive means the rest
Write down the outcome that applies. Available outcomes: label 1 (active), label 0 (inactive)

INSERT INTO results (compound_string, label_class) VALUES
  ('Cc1cc(O)cc(C)c1/C=C/c1cncc(C(=O)OC(C)(C)C)c1', 'label 0');

INPUT: Given CCN(CC)c1ccc(/C=C/C=C(/C#N)C(N)=S)cc1 , state the outcome it received in this test.
OUTPUT: label 0

INPUT: Item: CNCCCn1c2c(c3ccc(F)cc3c1=O)C(=O)c1cc(OC)cnc1-2
OUTPUT: label 1

====

# Tested on: HCT-15 colon
# Test Name: NCI tumour cell line growth inhibition, 48 h
Exercise: state measured TGI for each of the molecules provided.

Completed entries (count: 4):
INSERT INTO results (molecule, result) VALUES
  ('Cc1cc(S(N)(=O)=O)c(S/C(=N\Nc2ccc([N+](=O)[O-])cc2)c2ccc3ccccc3c2)cc1Cl', '41 µM'),
  ('COc1ccc2[nH]c(O)c(/C=c3/ccc4c(c3)N=C(c3ccc(F)cc3)N=4)c2c1', '> 100 µM'),
  ('Cc1cc(C)c(C(=O)/C=C/c2ccccc2)c(C)c1', '51.3 µM'),
  ('CCCCS(=O)CC(CO)NC(=O)/C=C/c1c(C)[nH]c(=O)[nH]c1=O (stereo not given)', '183 µM');

Kindly review the next molecule as well.
INPUT: What value of TGI has been recorded for this entry: CN(C)CCNc1nc2ccccc2c2occc12
OUTPUT: > 100 µM
